Ref: PubChem BioAssay AID1745844

- Tested on: rodent lifetime carcinogenesis bioassay, tumor incidence TD50
- procedure.summary: carcinogenic potency in animals, long-term in vivo studies, CPDB compilation (AID 1745844)
- condition.info: mouse; strain B6C3F1; females; inhaled; site: Harderian gland; lesion: adenoma + carcinoma; dosed 104 weeks; study length 104 weeks
parameter.measured: TD50

GET /values?readout=TD50&item= C=CC(=C)Cl 55.2 mg/kg/day

###

# maps each entry to its TD50
- Tested on: rodent lifetime carcinogenesis bioassay, tumor incidence TD50
- procedure.summary: carcinogenic potency in animals, long-term in vivo studies, CPDB compilation (AID 1745844)
- condition.info: mouse; strain Swiss; females; in feed; site: lung; lesion: alveolar-cell carcinoma; dosed 46 weeks; study length 66 weeks
# output: bare number, implied unit mg/kg/day

GET /values?readout=TD50&item= O=CNc1nc(-c2ccc([N+](=O)[O-])o2)cs1 86.4

NNc1nc(-c2ccc([N+](=O)[O-])cc2)cs1 ? 25

###

- System: rodent lifetime carcinogenesis bioassay, tumor incidence TD50
- procedure.summary: carcinogenic potency in animals, long-term in vivo studies, CPDB compilation (AID 1745844)
- condition.info: rat; strain Fischer 344; females; in drinking water; site: liver; lesion: neoplastic nodule; dosed 100 weeks; study length 130 weeks
parameter.measured: TD50

GET /values?readout=TD50&item= C=COC(C)=O 488 mg/kg/day

###

- System: rodent lifetime carcinogenesis bioassay, tumor incidence TD50
- procedure.summary: carcinogenic potency in animals, long-term in vivo studies, CPDB compilation (AID 1745844)
- condition.info: rat; strain Fischer 344; females; in drinking water; site: adrenal medulla; lesion: pheochromocytoma; dosed 100 weeks; study length 126 weeks
parameter.measured: TD50

Under rodent lifetime carcinogenesis bioassay, tumor incidence TD50: TD50 value of O=NN1CCOCC1 ? 1.07 mg/kg/day

###

- Test system: rodent lifetime carcinogenesis bioassay, tumor incidence TD50
- procedure.summary: carcinogenic potency in animals, long-term in vivo studies, CPDB compilation (AID 1745844)
- condition.info: mouse; strain B6C3F1; males; in drinking water; site: liver; lesion: several types; types named in the paper; dosed 85 weeks; study length 85 weeks
parameter.measured: TD50 (mg/kg/day)
# output: bare number, implied unit mg/kg/day

GET /values?readout=TD50&item= [O-][Cl+]O 110

###

- Tested on: rodent lifetime carcinogenesis bioassay, tumor incidence TD50
- procedure.summary: carcinogenic potency in animals, long-term in vivo studies, CPDB compilation (AID 1745844)
- condition.info: monkey; strain Rhesus [Macaca mulatta]; both sexes; in feed; site: liver; lesion: hepatocellular carcinoma; dosed 258 weeks; study length 1281 weeks
parameter.measured: TD50

GET /values?readout=TD50&item= CCOC(N)=O 143 mg/kg/day

###

- Tested on: rodent lifetime carcinogenesis bioassay, tumor incidence TD50
- procedure.summary: carcinogenic potency in animals, long-term in vivo studies, CPDB compilation (AID 1745844)
- condition.info: mouse; strain Swiss albino; males; in drinking water; site: blood vessels; lesion: several types; types named in the paper; dosed 106 weeks; study length 106 weeks
parameter.measured: TD50

GET /values?readout=TD50&item= CC(=O)NNc1ccccc1 59.8 mg/kg/day

###

- Test system: rodent lifetime carcinogenesis bioassay, tumor incidence TD50
- procedure.summary: carcinogenic potency in animals, long-term in vivo studies, CPDB compilation (AID 1745844)
- condition.info: rat; strain Fischer 344; females; in feed; site: any site (literature study); lesion: several types; types named in the paper; dosed 40 weeks; study length 66 weeks
parameter.measured: TD50
Please provide the amount together with its unit, number first.

GET /values?readout=TD50&item= Nc1c(Br)cc(Br)c2c1C(=O)c1ccccc1C2=O 135 mg/kg/day

###

- Test system: rodent lifetime carcinogenesis bioassay, tumor incidence TD50
- procedure.summary: carcinogenic potency in animals, long-term in vivo studies, CPDB compilation (AID 1745844)
- condition.info: rat; strain Sprague-Dawley; males; in feed; site: any site (literature study); lesion: several types; types named in the paper; dosed 78 weeks; study length 104 weeks
parameter.measured: TD50 (mg/kg/day)
# output: bare number, implied unit mg/kg/day

Under rodent lifetime carcinogenesis bioassay, tumor incidence TD50: TD50 value of CCOc1ccc(NC(C)=O)cc1 ? 631

###

- System: rodent lifetime carcinogenesis bioassay, tumor incidence TD50
- procedure.summary: carcinogenic potency in animals, long-term in vivo studies, CPDB compilation (AID 1745844)
- condition.info: mouse; strain B6C3F1; females; by gavage; site: liver; lesion: hepatocellular adenoma; dosed 104 weeks; study length 105 weeks
parameter.measured: TD50 (mg/kg/day)
# output: bare number, implied unit mg/kg/day

Under rodent lifetime carcinogenesis bioassay, tumor incidence TD50: TD50 value of c1ccoc1 ? 2.26

###

- Test system: rodent lifetime carcinogenesis bioassay, tumor incidence TD50
- procedure.summary: carcinogenic potency in animals, long-term in vivo studies, CPDB compilation (AID 1745844)
- condition.info: rat; strain Fischer 344; males; by gavage; site: colon + rectum; lesion: adenomatous polyp; dosed 94 weeks; study length 104 weeks
parameter.measured: TD50 (mg/kg/day)
# output: bare number, implied unit mg/kg/day

Under rodent lifetime carcinogenesis bioassay, tumor incidence TD50: TD50 value of ClCC(Cl)CCl ? 264

###

- Test system: rodent lifetime carcinogenesis bioassay, tumor incidence TD50
- procedure.summary: carcinogenic potency in animals, long-term in vivo studies, CPDB compilation (AID 1745844)
- condition.info: mouse; strain Charles River CD1; females; inhaled; site: liver; lesion: hepatoma; dosed 52 weeks; study length 52 weeks
parameter.measured: TD50
Please provide the amount together with its unit, number first.

GET /values?readout=TD50&item= C=C(Cl)Cl 170 mg/kg/day

###

- Tested on: rodent lifetime carcinogenesis bioassay, tumor incidence TD50
- procedure.summary: carcinogenic potency in animals, long-term in vivo studies, CPDB compilation (AID 1745844)
- condition.info: rat; strain Fischer 344; males; in feed; site: forestomach; lesion: squamous-cell carcinoma; dosed 103 weeks; study length 104 weeks
parameter.measured: TD50 (mg/kg/day)
# output: bare number, implied unit mg/kg/day

GET /values?readout=TD50&item= COc1ccccc1[N+](=O)[O-] 715

###

- System: rodent lifetime carcinogenesis bioassay, tumor incidence TD50
- procedure.summary: carcinogenic potency in animals, long-term in vivo studies, CPDB compilation (AID 1745844)
- condition.info: mouse; strain B6C3F1; males; in drinking water; site: liver; lesion: hepatocellular adenoma; dosed 103 weeks; study length 103 weeks
parameter.measured: TD50
Please provide the amount together with its unit, number first.

Under rodent lifetime carcinogenesis bioassay, tumor incidence TD50: TD50 value of c1ccncc1 ? 488 mg/kg/day

###

- System: rodent lifetime carcinogenesis bioassay, tumor incidence TD50
- procedure.summary: carcinogenic potency in animals, long-term in vivo studies, CPDB compilation (AID 1745844)
- condition.info: mouse; strain Swiss albino; females; in drinking water; site: lung; lesion: several types; types named in the paper; dosed 99 weeks; study length 99 weeks
parameter.measured: TD50

GET /values?readout=TD50&item= CCCNN 41.4 mg/kg/day

###

- Tested on: rodent lifetime carcinogenesis bioassay, tumor incidence TD50
- procedure.summary: carcinogenic potency in animals, long-term in vivo studies, CPDB compilation (AID 1745844)
- condition.info: mouse; strain CDF1; females; in feed; site: liver; lesion: hepatocellular carcinoma; dosed 97 weeks; study length 97 weeks
parameter.measured: TD50 (mg/kg/day)
# output: bare number, implied unit mg/kg/day

GET /values?readout=TD50&item= Nc1ccc2c(n1)[nH]c1ccccc12 44.7

###

- Tested on: rodent lifetime carcinogenesis bioassay, tumor incidence TD50
- procedure.summary: carcinogenic potency in animals, long-term in vivo studies, CPDB compilation (AID 1745844)
- condition.info: rat; strain Han-Ibm Wistar; males; inhaled; site: liver; lesion: hepatocellular carcinoma; dosed 108 weeks; study length 108 weeks
The source made the active and inactive calls. The rule behind the calls is not given here.
parameter.measured: TD50

GET /values?readout=TD50&item= FCC(F)(F)F 140000 mg/kg/day (inactive)

###

- System: rodent lifetime carcinogenesis bioassay, tumor incidence TD50
- procedure.summary: carcinogenic potency in animals, long-term in vivo studies, CPDB compilation (AID 1745844)
- condition.info: mouse; strain B6C3F1; females; in feed; site: any site (literature study); lesion: one or several types; types not named; dosed 104 weeks; study length 104 weeks
Calls of active or inactive are those of the source. How the calls were made is not given here.
parameter.measured: TD50

GET /values?readout=TD50&item= CC(C)C(C(=O)OC(C#N)c1cccc(Oc2ccccc2)c1)c1ccc(Cl)cc1 (stereo unspecified) 173 mg/kg/day (inactive)

###

- System: rodent lifetime carcinogenesis bioassay, tumor incidence TD50
- procedure.summary: carcinogenic potency in animals, long-term in vivo studies, CPDB compilation (AID 1745844)
- condition.info: rat; strain Wistar; males; inhaled; site: lung; lesion: carcinoma; dosed 78 weeks; study length 134 weeks
parameter.measured: TD50

GET /values?readout=TD50&item= [Cl][Cd][Cl] 0.0127 mg/kg/day

###

- Tested on: rodent lifetime carcinogenesis bioassay, tumor incidence TD50
- procedure.summary: carcinogenic potency in animals, long-term in vivo studies, CPDB compilation (AID 1745844)
- condition.info: mouse; strain B6C3F1; females; in feed; site: liver; lesion: hepatocellular adenoma + hepatocellular carcinoma; dosed 104 weeks; study length 104 weeks
parameter.measured: TD50

GET /values?readout=TD50&item= Nc1c(Br)cc(Br)c2c1C(=O)c1ccccc1C2=O 490 mg/kg/day
